test summary: chemical genetic growth profiling, strain panel (AID 1159580);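 further: tested at 20 µM; growth read once vehicle control cultures reached saturation at 30 °C; 1 = growth at the plate median or of vehicle wells; lower values mean less growth of the strain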
experimental parameters: S. cerevisiae deletion strains, growth OD, locus YCL029C, strain bik1, hits give low values
Hit rate of the full screen: of about 5,500 compounds, about 2,000 (36%) were called active. Inconclusive results (about 18%) are left out. The list shows a part of the results.
Task for the reader: assign each of the following compounds its reported normalized growth.
Write the number on its own, no unit after it.

In: Data request, read-out normalized growth, for `Cc1oncc1C(=O)Nc1ccc(C(F)(F)F)cc1`
Out: 0.996

In: Consider the compound CC(=O)OCC(=O)[C@@]1(O)CCC2C3CCC4=CC(=O)C=CC4(C)C3[C@@H](O)C[C@@]21C (stereo not given in full) and give its measured normalized growth.
Out: 1.02

In: What does the record list as normalized growth for `N[C@@H](C(=O)O)[C@@H](O)[C@H](O)[C@H](O)CO` ?
Out: 1.02

In: For the compound `NC1(C(=O)O)CCCC1` , what normalized growth is on record?
Out: 1.02

In: What does the data say about its normalized growth? Entry: NC(C(=O)O)C(O)C(=O)O (stereo not given)
Out: 1.03

----------
test summary: chemical genetic growth profiling, strain panel (AID 1159580);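 further: tested at 20 µM; growth read once vehicle control cultures reached saturation at 30 °C; 1 = growth at the plate median or of vehicle wells; lower values mean less growth of the strain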
experimental parameters: S. cerevisiae deletion strains, growth OD, locus YLR027C, strain aat2
Screen size: about 5,500 compounds; about 2,000 (36%) were called active. Another 18% or so got no clear call; they are omitted. Cut-off read from the data, not from the text of the source: active = normalized growth mostly below about 0.91 (no sharp cut-off); inconclusive = no clear call, values can overlap the other calls; inactive = mostly above about 0.92. This is one part of the list.
Choose the fitting class; nothing outside yes (1) for active, no (0) for inactive is accepted.

In: Fill in: this test's call for Clc1ccc(COC(Cn2ccnc2)c2ccc(Cl)cc2Cl)cc1 (configuration not stated) is ___
Out: yes (1)

In: Please state the recorded outcome for this molecule: Clc1ccc(COC(Cn2ccnc2)c2ccc(Cl)cc2Cl)c(Cl)c1 (configuration not stated)
Out: yes (1)

In: For this molecule, state the assay outcome: `Oc1c(Cl)cc(Cl)c(Cl)c1Cc1c(O)c(Cl)cc(Cl)c1Cl`
Out: yes (1)

In: Please let me know the test result on file for CC(=O)O[C@H]1C[C@@H](OC(C)=O)C(C)(C)C2C[C@@H](OC(C)=O)[C@]3(C)C(CC[C@@]4(C)[C@H](c5ccoc5)OC(=O)[C@H]5O[C@]543)[C@]21C (some centres not stated) .
Out: no (0)

In: What outcome does the record of this test show for CC(=O)O[C@@H]1CC2C(C)(C)[C@H](O)C=C[C@]2(C)C2CC[C@@]3(C)[C@H](c4ccoc4)OC(=O)C4OC43[C@@]21C (some centres not stated) ?
Out: no (0)

In: Write down the call the test reported for this molecule. Item: CC(=O)O[C@H]1C[C@@H](OC(C)=O)C(C)(C)C2C[C@@H](O)[C@]3(C)C(CC[C@@]4(C)[C@H](c5ccoc5)OC(=O)[C@H]5O[C@]543)[C@]21C (some centres not stated)
Out: no (0)

In: What did this assay record as the result for CC(=O)O[C@@H]1CC2C(C)(C)[C@@H](O)CC[C@]2(C)C2CC[C@@]3(C)[C@H](c4ccoc4)OC(=O)[C@H]4O[C@]43[C@@]21C (some centres not stated) ?
Out: no (0)

----------
test summary: chemical genetic growth profiling, strain panel (AID 1159580);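 further: tested at 20 µM; growth read once vehicle control cultures reached saturation at 30 °C; 1 = growth at the plate median or of vehicle wells; lower values mean less growth of the strain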
experimental parameters: S. cerevisiae deletion strains, growth OD, locus YLR262C, strain YPT6 (second series)
The whole screen tested about 5,500 compounds, of which about 2,000 (36%) were called active. Not shown: some 18% with an inconclusive outcome. No stated cut-off is given here; in the data, active means normalized growth mostly below about 0.91 (no sharp cut-off); inconclusive means no clear call, values can overlap the other calls; inactive means mostly above about 0.92. The list shows a part of the results.
Bench note: report the call from TRUE for active, FALSE for inactive

In: Hi team, can someone confirm the assay call for COc1ccc2nc(S(=O)Cc3ncc(C)c(OC)c3C)[nH]c2c1 (centres undefined) ?
Out: TRUE

In: Check the results log: what was the call for CC(C)=CC1C(C(=O)OCc2cccc(Oc3ccccc3)c2)C1(C)C (centres undefined) ?
Out: FALSE

In: Please indicate how the test categorized `CC[C@@H]1OC(=O)C[C@@H](O)[C@H](C)[C@@H](O[C@@H]2O[C@H](C)[C@@H](O)[C@H](N(C)C)[C@H]2O)[C@@H](CCN2C[C@H](C)C[C@H](C)C2)C[C@@H](C)C(=O)/C=C/C(C)=C\[C@@H]1CO[C@@H]1O[C@H](C)[C@@H](O)[C@@H](OC)[C@H]1OC` .
Out: FALSE

In: Record lookup: outcome of this test for `NC1(C(=O)O)CC1` ?
Out: FALSE

In: Field: outcome | Entry: `Clc1ccc(CO/N=C(/Cn2ccnc2)c2ccc(Cl)cc2Cl)c(Cl)c1`
Out: TRUE

In: # lookup: test call for `NC(N)=NCCCCN=C(N)N`
Out: FALSE

In: Please state the recorded outcome for this compound: `CN(C/C=C/C#CC(C)(C)C)Cc1cccc2ccccc12`
Out: TRUE

In: Lab log entry: Clc1ccc(COC(Cn2ccnc2)c2ccc(Cl)cc2Cl)c(Cl)c1 (centres undefined) — outcome as called in the assay?
Out: TRUE

In: Per the records of this test, what outcome belongs to Clc1ccc(COC(Cn2ccnc2)c2ccc(Cl)cc2Cl)cc1 (centres undefined) ?
Out: TRUE

In: # fetch the recorded call for `CN1CCC[C@@H]1CCO[C@](C)(c1ccccc1)c1ccc(Cl)cc1` here
Out: FALSE

In: // return assay outcome for `COc1ccc2oc3ccccc3c(=O)c2c1`
Out: TRUE

In: Write down the call the test reported for this compound. Item: `c1ccc2c(CC3=NCCN3)cccc2c1`
Out: FALSE

In: Fill in: this test's call for CCCCCCCCCCCCCC(=O)OC1C(C)C2(O)C(C=C(CO)CC3(O)C(=O)C(C)=CC32)C2C(C)(C)C12OC(C)=O (centres undefined) is ___
Out: FALSE

In: Test call, this compound: C[C@@H]1CC[C@H]2C(C)(C)C3CC12CC[C@@]3(C)O (some centres undefined)
Out: TRUE

In: State the result this test recorded for CC(=O)C1CCC2C3CCC4C[C@H](O)CCC4(C)C3C[C@H](O)C12C (some centres undefined) .
Out: FALSE

In: For `C=C1C(=O)[C@]23[C@H](O)[C@H]1CC[C@H]2[C@@]12CO[C@]3(O)[C@H](O)[C@@H]1C(C)(C)CC[C@@H]2O` , what call appears in the results of this test?
Out: FALSE

In: Tell me the recorded outcome of this test for COC(=O)[C@@H]1OC(=O)C2OC23[C@@]1(C)CCC1[C@]2(C)C(C[C@@H](O)[C@]13C)C(C)(C)[C@H](OC(C)=O)C[C@@H]2OC(C)=O (some centres undefined) .
Out: FALSE

In: Dear colleague, could you share the recorded outcome for COc1ccnc(CS(=O)c2nc3ccc(OC(F)F)cc3[nH]2)c1OC (centres undefined) when you have a moment?
Out: FALSE

In: What was the test verdict on CCC(C)C(=O)c1c(O)c(C)c2oc3c(C)c(O)c(C(=O)C(C)CC)c(O)c3c2c1O (centres undefined) ?
Out: FALSE
